Data provenance is patent US20260008852A1.

# Lookup of reported ELISA OD450 @ 1 ug/ml keyed by entry
tested-on: T1, His-tagged cynomolgus monkey B7-H3 (cynomolgus monkey)
T1 chain: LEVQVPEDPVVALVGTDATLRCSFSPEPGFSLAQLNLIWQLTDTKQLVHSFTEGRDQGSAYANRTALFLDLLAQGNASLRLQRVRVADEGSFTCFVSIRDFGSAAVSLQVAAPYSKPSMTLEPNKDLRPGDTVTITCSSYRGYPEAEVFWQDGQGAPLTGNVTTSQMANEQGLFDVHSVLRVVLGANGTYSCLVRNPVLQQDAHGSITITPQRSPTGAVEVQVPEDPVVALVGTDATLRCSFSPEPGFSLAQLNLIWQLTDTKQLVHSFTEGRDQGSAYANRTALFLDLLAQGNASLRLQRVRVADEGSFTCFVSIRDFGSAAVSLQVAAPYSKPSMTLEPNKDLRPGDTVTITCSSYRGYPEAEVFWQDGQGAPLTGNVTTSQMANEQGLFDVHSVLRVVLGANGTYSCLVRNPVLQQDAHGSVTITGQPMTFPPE
test-method-notes: ELISA, coated His-tagged antigen, scFv-Fc 1 ug/ml
State just the number; it will be interpreted in OD450.

INSERT INTO assay_data (binder, measured_quantity, output_unit, endpoint_result) VALUES
  ('40633p1.1.A6 (scFv, V domains shown, Tested as scFv-Fc (Expi293 supernatant)) VH: EVQLLESGGGLVQPGGSLRLSCAASGFSFSNYDMSWVRQAPGKGLEWVAGIRSGSRTYYADSVKGRFTISRDNSKNTLYLQMNSLRAEDTATYYCGRYFNMDVWGQGTTVTVSS VL: QSVLTQPPSASGTPGQRVTISCSGSTFNIGTNLVHWYQQLPGTAPKLLIYLTDRRPSGVPDRFSGSKSGTSASLAISGLQSEDEANYYCATWDDSLNSFLFGGGTKLTVL', 'ELISA OD450 @ 1 ug/ml', 'OD450', 1.62);

Please find the next binder below.
Per the record, 40579p1.C2 (scFv, V domains shown, Tested as scFv-Fc (Expi293 supernatant)) VH: EVQLLESGGDLVQPGGSLRLSCAASGFNFSSYWMSWVRQAPGKGLEWVSGISISYGGNAYYADSVKGRFTVSRDNSKNTLYLQMNSLRAEDTAVYYCGRDRSPYQYRSMDVWGQGTTVTVSS VL: EIVLTQSPATLSVSPGERATFSCRASQTIGNKLAWYQQKPGQAPRLLIFSASTRATDIPDRFSGSGSGTDFTLTISSLQSEDFAVYYCQQYNNWPPLTFGGGTKVEIK has ELISA OD450 @ 1 ug/ml of 2.18
